Here the recorded Yap1 mRNA, % UTC is given for each entry.
- Test system: Yap1 mRNA
- EXPERIMENT_SUMMARY: Dose-dependent inhibition of human Yap1 in A-431 cells (Example 8, 10,000 cells per well, RTS4814)
- Type: cell-based
- SETUP_CONDITIONS: 2000.00 nM; A-431 cells, 10,000 cells per well, free uptake, approximately 48 hours, RTS4814
Strand notation (5' to 3'): a small letter for the sugar, then the base; units joined by * are phosphorothioate-linked, units joined directly phosphodiester-linked; [ ] holds rarer units or linkages, { } end groups; capitals alone tell only the bases. k = constrained ethyl (cEt); [5mC] = 5-methylcytosine; d = 2'-deoxy (DNA)

SUBSTANCE | Yap1 mRNA, % UTC
1074794 (k[5mC]*kA*kA*dA*dT*d[5mC]*dA*dA*dT*dG*dT*dG*d[5mC]*kT*k[5mC]*k[5mC]; antisense) [compound 1074794] | 6 % UTC
1074792 (kA*kT*k[5mC]*dA*dA*dT*dG*dT*dG*d[5mC]*dT*d[5mC]*d[5mC]*kA*kT*k[5mC]; antisense) [compound 1074792] | 5 % UTC
1074629 (DNA kG*kA*kG*dA*dT*dT*dT*dT*dA*dT*dG*d[5mC]*d[5mC]*kT*kG*kT; antisense) [compound 1074629] | 3 % UTC
1076260 (k[5mC]*kT*kT*dA*dA*dT*dT*dT*dA*dA*d[5mC]*dT*d[5mC]*k[5mC]*kT*kG; antisense) [compound 1076260] | 5 % UTC
1075249 (kA*kT*kT*dA*d[5mC]*dG*dA*dT*dT*dA*dG*dA*dT*k[5mC]*kA*kG; antisense) [compound 1075249] | 8 % UTC
1075052 (antisense kA*kT*kA*dT*dA*dT*dA*d[5mC]*dT*dT*dG*dA*dT*k[5mC]*k[5mC]*kA) [compound 1075052] | 4 % UTC
1076527 (kG*k[5mC]*kA*d[5mC]*dA*dA*d[5mC]*d[5mC]*dT*dT*dA*d[5mC]*dA*kT*kT*kT; antisense) [compound 1076527] | 8 % UTC
1074417 (kT*k[5mC]*kT*dT*dT*dA*dG*dA*dG*d[5mC]*d[5mC]*dA*dA*k[5mC]*kT*kG; antisense) [compound 1074417] | 3 % UTC
1075757 (k[5mC]*kT*kT*dA*dA*dT*dA*d[5mC]*dA*dT*dT*dA*dT*kT*k[5mC]*k[5mC]; antisense) [compound 1075757] | 2 % UTC
1076294 (kT*kA*kT*dA*dT*dT*dA*dG*dT*dG*d[5mC]*d[5mC]*d[5mC]*k[5mC]*k[5mC]*kT; antisense) [compound 1076294] | 11 % UTC
1075111 (kT*kA*kG*dG*dA*dA*dT*dA*dT*dG*dG*dG*dT*kA*kG*kT; antisense) [compound 1075111] | 5 % UTC
1074594 (DNA kT*kA*kG*dG*dA*dG*d[5mC]*dA*dA*dG*dT*d[5mC]*dT*kT*kG*kT) [compound 1074594] | 5 % UTC
1075055 (antisense k[5mC]*kT*kA*dT*dT*dA*dA*dG*dT*dG*dA*dG*d[5mC]*kT*kT*kT) [compound 1075055] | 4 % UTC
1075916 (antisense k[5mC]*kA*kA*dT*dT*dT*dA*dG*dG*dA*dT*dG*d[5mC]*k[5mC]*kT*kT) [compound 1075916] | 8 % UTC
1076459 (k[5mC]*kT*kT*d[5mC]*dA*dA*d[5mC]*dA*dA*dG*dA*d[5mC]*dA*kG*kG*kT; antisense) [compound 1076459] | 7 % UTC
